All values here come from patent US20210251991A1.

# Tested on: HBsAg in HepG2.2.15 cells
# test_method_notes: HBsAg assay: inhibition of HBsAg in HepG2.2.15 cells (chemiluminescence immunoassay of supernatant)
# Format: cell-based, hepatitis B virus
# reported_conditions: Hepatitis B virus, HepG2.2.15, 144 h, read-out: sAg EC50, HepG2.2.15 cells, supernatant collected at day 6 after exposure, HBsAg CLIA
assay_metric: EC50

Solved entries:
compound: CCC1c2cc(F)c(F)cc2CN1c1ccnc(C(=O)O)n1 (centres unmarked) [Example 95]
study_system: HBsAg in HepG2.2.15 cells
EC50: 2000 nM
--
compound: CCC1c2ccc(F)c(F)c2CCN1c1cnc(-c2ncccn2)nc1 (centres unmarked) [Example 32]
study_system: HBsAg in HepG2.2.15 cells
EC50: 2000 nM
--
compound: COc1cc2c(cc1OC)C1CCC2N1c1cnc(-c2ncccn2)nc1 [Example 84]
study_system: HBsAg in HepG2.2.15 cells
EC50: 4000 nM
--
compound: Fc1cc(F)c2c(c1)CN(c1ccnc(-c3ncccn3)n1)CC2 [Example 2]
study_system: HBsAg in HepG2.2.15 cells
EC50: 1600 nM

Please find the next compound below.
Input: Determine its reported EC50: Fc1cnc(-c2ncccn2)nc1N1C2CCC1c1ccccc12 [Example 86]
Output: 2400 nM

* * *

# System: HBsAg in HepG2.2.15 cells
# test_method_notes: HBsAg assay: inhibition of HBsAg in HepG2.2.15 cells (chemiluminescence immunoassay of supernatant)
# Assay type: cell-based, hepatitis B virus
# reported_conditions: Hepatitis B virus, HepG2.2.15, 144 h, read-out: sAg EC50, HepG2.2.15 cells, supernatant collected at day 6 after exposure, HBsAg CLIA
List of EC50 values.
Write the number in nM without appending the unit.

Consider the reported EC50 for these compounds:
compound: CCC1c2ccccc2CCN1c1cnc2c(NC)nccc2c1 (stereo not shown) [Example 124]
unit_abbrev: nM
EC50: 22000

compound: CCC1c2cc(OC)c(F)cc2CN1c1ccnc(-c2ncccn2)n1 (single isomer, unassigned) [Example 77]
unit_abbrev: nM
EC50: 110

compound: COc1cc2c(cc1OC)C(CC(=O)O)N(c1cnc(-c3ncccn3)nc1)CC2 (stereo not shown) [Example 27]
unit_abbrev: nM
EC50: 28000

Input: Look up and report measured EC50 (HBsAg in HepG2.2.15 cells) for the following compound: CCC1c2cc(F)c(OC)cc2CN1c1ccnc(-c2ncccn2)n1 (stereo not shown) [Example 63]
Output: 21

Input: State EC50 (HBsAg in HepG2.2.15 cells) of CCC1c2cc(F)c(F)cc2CN1c1nc(-c2ncccn2)ncc1F (stereo not shown) [Example 51] .
Output: 27

Input: # lookup: HBsAg in HepG2.2.15 cells EC50, key = CCC1c2cc(F)c(OC)cc2CN1c1cnc(C(=O)O)nc1 (stereo not shown) [Example 98]
Output: 240

Input: With HBsAg in HepG2.2.15 cells as the test system, provide measured EC50 for this compound: CCC1c2cc(F)c(F)cc2CN1c1cnc(C(N)=O)nc1 (stereo not shown) [Example 119]
Output: 42000

Input: Report EC50 on HBsAg in HepG2.2.15 cells for this entry: CCC1c2cc(F)c(OC)cc2CN1c1ccnc(C(=O)NS(C)(=O)=O)n1 (stereo not shown) [Example 104]
Output: 5000

Input: // fetch EC50 for CCC1c2cc(F)c(OC)cc2CCN1c1ccnc(-c2ncccn2)n1 (stereo not shown) [Example 127] ; system: HBsAg in HepG2.2.15 cells
Output: 20

Input: Check HBsAg in HepG2.2.15 cells data and give EC50 for CCC1c2cc(F)c(F)cc2CN1c1ccnc(C(N)=O)n1 (stereo not shown) [Example 121] .
Output: 18000

Input: Quote EC50 with test system HBsAg in HepG2.2.15 cells for CCC1c2cc(OC)c(OC)cc2CN1c1ccnc(-c2ncccn2)n1 (stereo not shown) [Example 55]
Output: 24

Input: Recall the reported EC50 of CCC1c2cc(F)c(F)cc2CCN1c1cnc(-c2ncccn2)nc1 (stereo not shown) [Example 25] when tested on HBsAg in HepG2.2.15 cells.
Output: 85

Input: Specify EC50 for CCC1c2cc(OC)c(F)c(F)c2CCN1c1cnc(-c2ncccn2)nc1 (stereo not shown) [Example 29] , system HBsAg in HepG2.2.15 cells.
Output: 170

* * *

# System: HBsAg in HepG2.2.15 cells
# test_method_notes: HBsAg assay: inhibition of HBsAg in HepG2.2.15 cells (chemiluminescence immunoassay of supernatant)
# Type: cell-based, hepatitis B virus
# reported_conditions: Hepatitis B virus, HepG2.2.15, 144 h, read-out: sAg EC50, HepG2.2.15 cells, supernatant collected at day 6 after exposure, HBsAg CLIA
pEC50: −log10 of the molar value.
Please mark Met if the recorded pEC50 is equal to or greater than 6, and Not met if it falls below.

A selection of reference data follows.
compound: CCC1c2cc(OC)c(OC)cc2CN1c1nc(-c2ncccn2)nc2c1CCC2 (stereo not drawn)
study_system: HBsAg in HepG2.2.15 cells
classification: Met
--
compound: CCC1c2ccc(F)c(OC)c2CCN1c1ccnc(-c2ncccn2)n1 (stereo not drawn)
study_system: HBsAg in HepG2.2.15 cells
classification: Met
--
compound: CCC1c2cc(OC)c(OC)cc2CN1c1nc(-c2ncccn2)ncc1C (stereo not drawn)
study_system: HBsAg in HepG2.2.15 cells
classification: Met
--
compound: Fc1cc2c(cc1F)CN(c1ccnc(-c3ncccn3)n1)CC2
study_system: HBsAg in HepG2.2.15 cells
classification: Met
--
compound: CCC1c2cc(F)c(OC)cc2CN1c1cnc(C(=O)NS(C)(=O)=O)nc1 (stereo not drawn) [Example 101]
study_system: HBsAg in HepG2.2.15 cells
classification: Met

Input: hey, is pEC50 for this one >= 6? CC1CN(c2cnc(-c3ncccn3)nc2)Cc2ccccc21 (stereo not drawn)
Output: Not met

Input: Item CC1c2ccccc2CCN1c1ccnc(-c2ncccn2)n1 (stereo not drawn) with pEC50 of 6 or above?
Output: Not met

Input: Tell me whether pEC50 is at least 6 here: CCC1c2cc(OC)c(OC)cc2CN1c1nc(-c2ncccn2)nc2ccoc12 (stereo not drawn)
Output: Met

* * *

# System: HBsAg in HepG2.2.15 cells
# test_method_notes: HBsAg assay: inhibition of HBsAg in HepG2.2.15 cells (chemiluminescence immunoassay of supernatant)
# Assay type: cell-based, hepatitis B virus
# reported_conditions: Hepatitis B virus, HepG2.2.15, 144 h, read-out: sAg EC50, HepG2.2.15 cells, supernatant collected at day 6 after exposure, HBsAg CLIA
We'd kindly ask you to apply these EC50 classes: b0 (below 200 nM), b1 (200 nM to below 3000 nM), b2 (3000 nM or more)

Consider the following illustrative entries.
molecule: CCC1c2cc(F)c(OC)cc2CCN1c1cnc(-c2ncccn2)nc1 (centres unmarked)
classification: b0
--
molecule: CC1c2ccc(F)c(F)c2CCN1c1cnc(-c2ncccn2)nc1 (centres unmarked)
classification: b1
--
molecule: CCC1c2cc(F)c(F)cc2CN1c1nc(-c2ncccn2)ncc1C1CC1 (centres unmarked)
classification: b1
--
molecule: CCC1c2cc(OC)c(OC)cc2CN1c1nc(-c2ncccn2)ncc1Cl (centres unmarked)
classification: b0
--
molecule: CCC1c2cc(OC)c(OC)cc2CN1c1nc(-c2ncccn2)ncc1NC (centres unmarked)
classification: b0

Input: Entry CCC1c2cc(OC)c(OC)cc2CN1c1nc(-c2ncccn2)nc2c1COC2 (centres unmarked) belongs to which category?
Output: b0

Input: // return the class label for CCC1c2cc(F)c(OC)cc2CN1c1cnc(C(=O)NS(C)(=O)=O)nc1 (single isomer, unassigned) [Example 102]
Output: b1

* * *

# System: HBsAg in HepG2.2.15 cells
# test_method_notes: HBsAg assay: inhibition of HBsAg in HepG2.2.15 cells (chemiluminescence immunoassay of supernatant)
# Format: cell-based, hepatitis B virus
# reported_conditions: read-out: sAg EC50; HepG2.2.15 cells, supernatant collected at day 6 after exposure, HBsAg CLIA
Quick rule for you: EC50 under 200 nM gets MET, anything else gets NOT MET.

molecule: CCC1c2cc(F)c(OC)cc2CCN1c1cnc(-c2ncccn2)nc1 (single isomer, unassigned) [Example 134]
classification: MET
--
molecule: CCC1c2cc(F)c(OC)cc2CN1c1nc(-c2ncccn2)ncc1F (single isomer, unassigned) [Example 71]
classification: MET
--
molecule: CCC1c2cc(F)c(OC)cc2CN1c1nc(-c2ncccn2)ncc1OC (single isomer, unassigned) [Example 74]
classification: MET
--
molecule: CCC1c2cc(F)c(OC)cc2CN1c1cnc(-c2ncccn2)nc1 (single isomer, unassigned) [Example 89]
classification: MET
--
molecule: CCC1c2ccc(F)c(F)c2CCN1c1ccnc(-c2ncccn2)n1 (single isomer, unassigned) [Example 40]
classification: NOT MET

Input: Does the reported EC50 of the following molecule sit strictly below 200 nM? CCC1c2cc(F)c(OC)cc2CN1c1nc(-c2ncccn2)ncc1-c1ccccc1 (single isomer, unassigned) [Example 67]
Output: NOT MET

Input: EC50 strictly < 200 nM for this molecule? CCCC1c2ccc(F)c(F)c2CCN1c1ccnc(-c2ncccn2)n1 (single isomer, unassigned) [Example 131]
Output: NOT MET

Input: Would you kindly verify if EC50 of CC1c2ccc(F)c(F)c2CCN1c1ccnc(-c2ncccn2)n1 (single isomer, unassigned) [Example 38] is strictly less than 200 nM?
Output: NOT MET

Input: Decide: EC50 of CCC1c2cc(F)c(OC)cc2CCN1c1ccnc(-c2ncccn2)n1 (single isomer, unassigned) [Example 128] strictly below 200 nM?
Output: MET

Input: Is the reported EC50 for CCC1c2cc(F)c(OC)cc2CN1c1cnc(C(=O)Nc2ccccn2)nc1 (single isomer, unassigned) [Example 107] strictly below 200 nM?
Output: NOT MET

Input: Is it true that EC50 reported for CCC1c2cc(F)c(F)cc2CN1c1ccnc(-c2ncccn2)n1 (single isomer, unassigned) [Example 50] is less than 200 nM?
Output: NOT MET

Input: Lab note: EC50 threshold 200 nM. Does this molecule come in strictly under it? CCC1c2cc(OC)c(F)c(F)c2CCN1c1cnc(-c2ncccn2)nc1 (single isomer, unassigned) [Example 31]
Output: NOT MET

Input: # TODO verify EC50 < 200 nM strictly for this molecule: CCC1c2cc(F)c(F)cc2CN1c1ccnc(-c2ncccn2)n1 (single isomer, unassigned) [Example 49]
Output: MET

Input: Does CCC1c2ccc(F)c(F)c2CCN1c1cnc(-c2ncccn2)nc1 (single isomer, unassigned) [Example 34] have EC50 strictly under 200 nM?
Output: MET
